B1: CPEB3 Ribozyme (parent)
chain: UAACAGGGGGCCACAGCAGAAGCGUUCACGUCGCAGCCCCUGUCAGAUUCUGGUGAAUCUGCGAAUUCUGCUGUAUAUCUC

Variants of: B1
Assay: self-cleavage, relative activity (ratio to wild type); higher = more cleavage; in vitro, sequencing
The following variants are listed with their measured self-cleavage values.
Observation type: self-cleavage

[
  {
    "Residues": "UAACAGGGUGCCACAGCAGAAGCGUUCACGUCGCAGCCCCUGUCAGAUUCUGGUAAAUCUGCGAAUUCUGCUGUAUAUCUC [G9U G55A]",
    "Result": 0.41
  },
  {
    "Residues": "UAACUGGGGGCCACAGCAGAAGCGAUCACGUCGCAGCCCCUGUCAGAUUCUGGUGAAUCUGCGAAUUCUGCUGUAUAUCUC [A5U U25A]",
    "Result": 0.26
  },
  {
    "Residues": "UAACAGGGGGGCACAGCAGUAGCGUUCACGUCGCAGCCCCUGUCAGAUUCUGGUGAAUCUGCGAAUUCUGCUGUAUAUCUC [C11G A20U]",
    "Result": 0.12
  },
  {
    "Residues": "UAACAGGGGGCCACAGCGGAAGCGUUCACGUCGCAGCCCCUGUCAGAUUCUGGUGAAUCUGCGAAUUCUGGUGUAUAUCUC [A18G C71G]",
    "Result": 0.27
  },
  {
    "Residues": "UAACAGGGAGCCACAGCAGAAGCGUUCACGUCGCAGCCCCUGUCAGAUUCUGGUGAAUCUGCGAAUUCUGCCGUAUAUCUC [G9A U72C]",
    "Result": 0.39
  },
  {
    "Residues": "UAACAGGGGGCCACAGCAGAAGCGUUCACGUCGCAGCCCGUGUCAGAUUCUGGGGAAUCUGCGAAUUCUGCUGUAUAUCUC [C40G U54G]",
    "Result": 0.29
  },
  {
    "Residues": "UAACAGGGGGCCACAGCAGAAGCGUUCACGUCGCAGCCCCUGUCAGAUUCUGGUGAAUCUGCGAAUUCUGCCGAAUAUCUC [U72C U74A]",
    "Result": 1.24
  },
  {
    "Residues": "UAACAGGGGGCUACAGCAGAAGCGUUCACGUCGCAGCCCCUGUCAGAUUCUGGUGAAUCUGCGAAUUCUGCUGUAUAUCCC [C12U U80C]",
    "Result": 1.23
  },
  {
    "Residues": "UAACAGGGGGCCACAGCAGAAGCGUUCACGUCGCAGCCCCGGUCAGAUUCUGGUGAAUCUGCGAAUUCUGCUGUAUAUCUU [U41G C81U]",
    "Result": 0.33
  },
  {
    "Residues": "UAACAGGGGGCCACAGCAGAAGCGUUCACGUCGCAGCCCCUGUCAGAUUCCGGUGAAUCUGCGAAUUCUGCCGUAUAUCUC [U51C U72C]",
    "Result": 1.01
  },
  {
    "Residues": "UAACUGGGGGCCACAGCAGAAGCGUUUACGUCGCAGCCCCUGUCAGAUUCUGGUGAAUCUGCGAAUUCUGCUGUAUAUCUC [A5U C27U]",
    "Result": 0.22
  },
  {
    "Residues": "UAACAGGGGGCCACAGCAGGAGCGUUCACGUCGCAGCCCCUGUCAGAUUCUGGUGAAACUGCGAAUUCUGCUGUAUAUCUC [A20G U58A]",
    "Result": 0.27
  },
  {
    "Residues": "UAGCAGGGGGCCACAGCAGAAGCGUUCACGUCGCAGCCCCUGUCAGAUUCUGGUGAAUCUGCGAAUUCUGCUGAAUAUCUC [A3G U74A]",
    "Result": 1.22
  },
  {
    "Residues": "UAACAGGGGGCCACAGCAGAAGCGAUCACGUCGCAGCCCCUGUCAGAUUCAGGUGAAUCUGCGAAUUCUGCUGUAUAUCUC [U25A U51A]",
    "Result": 0.33
  },
  {
    "Residues": "UAACGGGGGGCCACAGAAGAAGCGUUCACGUCGCAGCCCCUGUCAGAUUCUGGUGAAUCUGCGAAUUCUGCUGUAUAUCUC [A5G C17A]",
    "Result": 0.3
  },
  {
    "Residues": "UAACAGGGGGCCACAGCAGAAGCUAUCACGUCGCAGCCCCUGUCAGAUUCUGGUGAAUCUGCGAAUUCUGCUGUAUAUCUC [G24U U25A]",
    "Result": 0.3
  },
  {
    "Residues": "UAACAGGGGGCCACAGCAGAAGCGUUCACGUCGCAGCCCCUGUCAGAUACUGGUGAAUCUGUGAAUUCUGCUGUAUAUCUC [U49A C62U]",
    "Result": 0.44
  },
  {
    "Residues": "UAACAGGGGGCCACAGCAGAAGCGUUCACGUCGCAGCCCCUGUCAGAUCCUGGUGAAUCUGCGAAUUCUGCUGUAUAUCGC [U49C U80G]",
    "Result": 0.49
  },
  {
    "Residues": "UAACAGGGGGCCACAGCAGAAGCGUUCACGUCGCAACCCCUUUCAGAUUCUGGUGAAUCUGCGAAUUCUGCUGUAUAUCUC [G36A G42U]",
    "Result": 0.13
  },
  {
    "Residues": "UAACAGAGGGCCACAGCAGAAGCGUUCACGUCGCAGCCCCCGUCAGAUUCUGGUGAAUCUGCGAAUUCUGCUGUAUAUCUC [G7A U41C]",
    "Result": 0.25
  },
  {
    "Residues": "UAACAGGGGGCCACAGCAGAAGCGUUCACGUCGCAGCCCCUGUCAGAUUCUGGUAAGUCUGCGAAUUCUGCUGUAUAUCUC [G55A A57G]",
    "Result": 0.46
  },
  {
    "Residues": "UAACAGGGGGCCACAGCAGAAGCGUUCACGUCGCAGCCCCUGUCAGAUUCUGGUCAAUCUGCGAAUUCCGCUGUAUAUCUC [G55C U69C]",
    "Result": 0.44
  },
  {
    "Residues": "UAACAGGGGGCCACAGCAGAAGUGUUCACGUCGCAGCCCCUGUCAGAUUCUGGUGAAUCUGGGAAUUCUGCUGUAUAUCUC [C23U C62G]",
    "Result": 0.09
  },
  {
    "Residues": "UAACAGGGGGCCACGGCAGAAGCGUUCACGUCGCAGCCCCUGUCAGAUUCUGGUGAAUCUGCGAAUUCUGCGGUAUAUCUC [A15G U72G]",
    "Result": 0.46
  },
  {
    "Residues": "UAACAGGGGGCCACAGCAGAAGCGUUCACGUCGCAUCCCCUGUCAGAUUCUGGUGAACCUGCGAAUUCUGCUGUAUAUCUC [G36U U58C]",
    "Result": 0.53
  },
  {
    "Residues": "UAACAGGGGGCCACAGCAGAAGCGUUCACGUCGCAGCCCCUGCCAGAUACUGGUGAAUCUGCGAAUUCUGCUGUAUAUCUC [U43C U49A]",
    "Result": 0.26
  },
  {
    "Residues": "UAACAGGGGGCCACAGCAGAAGCGUUCACGUCGCAGGCCCUGUCAGAUCCUGGUGAAUCUGCGAAUUCUGCUGUAUAUCUC [C37G U49C]",
    "Result": 0.38
  },
  {
    "Residues": "UAACAGGGGGCCACAGCAGAAGCGUUCACGUCGCACCCCCUGUCUGAUUCUGGUGAAUCUGCGAAUUCUGCUGUAUAUCUC [G36C A45U]",
    "Result": 0.14
  },
  {
    "Residues": "UAACAGGGGGCCACAGCAGAAGCGUUCACGUCGCAGCCCCUGUCAGAUUCUGGUGAAUCUGAGAACUCUGCUGUAUAUCUC [C62A U66C]",
    "Result": 0.25
  },
  {
    "Residues": "UAACAGGGGGCCACAGCAGAAGCGUUCACGUCGCAGCCCUUGUCAGAUUCUGGUGAUUCUGCGAAUUCUGCUGUAUAUCUC [C40U A57U]",
    "Result": 0.61
  },
  {
    "Residues": "UAAAAGGGGGCCACAGCAGAAGCGUUCACGUCGCAGCCCCUGUCUGAUUCUGGUGAAUCUGCGAAUUCUGCUGUAUAUCUC [C4A A45U]",
    "Result": 1.16
  },
  {
    "Residues": "UAACAGGGGGCCACAGCAGAAGCGUUCACGUCGCAGCCCCCGUCAGAUUCUGGUGAAUCUGCGAAUUCGGCUGUAUAUCUC [U41C U69G]",
    "Result": 0.79
  },
  {
    "Residues": "UAACAUGGGGCCACAGCAGAAGCGUUCACGUCGCAGCCCCUGUCAGAUUCUGGUGAAUCUGCGAAUUCUGCUGUAUAUCAC [G6U U80A]",
    "Result": 0.44
  },
  {
    "Residues": "UAACAGGGGGCCACAGCAGAAUCGUUCACGUCGCAGCCCCUGUCAGAUUCUGGUGAAUCUCCGAAUUCUGCUGUAUAUCUC [G22U G61C]",
    "Result": 0.14
  },
  {
    "Residues": "UAACAGGGGGCCACAGCAGAAGCGUUCACGUCGCAGCCCCUGUCAGAUUCUGCUGGAUCUGCGAAUUCUGCUGUAUAUCUC [G53C A56G]",
    "Result": 0.53
  },
  {
    "Residues": "UAACAGGGGGCCACAGCAGAAGCAUUAACGUCGCAGCCCCUGUCAGAUUCUGGUGAAUCUGCGAAUUCUGCUGUAUAUCUC [G24A C27A]",
    "Result": 0.18
  },
  {
    "Residues": "UAACAGGGGGCCACAGCAGAAGCGUUCACGUCGCAGCCCCUGUCUGAUUCCGGUGAAUCUGCGAAUUCUGCUGUAUAUCUC [A45U U51C]",
    "Result": 0.48
  },
  {
    "Residues": "UAACAGGGGGCCACAGCAGAAGCGUUCACGUCGCAGCCCCUGUCAGAUUCUGGUGGAUCUGCGAAUUCUGCUGUAUCUCUC [A56G A77C]",
    "Result": 0.79
  },
  {
    "Residues": "UAACAGGGGACCACAGCAGAAGCGUUCACGUCGCAGCCCCUGUCAGGUUCUGGUGAAUCUGCGAAUUCUGCUGUAUAUCUC [G10A A47G]",
    "Result": 0.12
  },
  {
    "Residues": "UAACAGAGGGCCACAGCAGAAGCGUUCACGUCGCAGCCCCUGUCAGAUUCUGGUGAAUCUGCGAAUUCCGCUGUAUAUCUC [G7A U69C]",
    "Result": 0.26
  },
  {
    "Residues": "UAACAGGGGGCCACAGCAGAAGCGUUCACGACGCAGCCCCUGUCAGAUUCUGGUGAAUCUGCGAAUUCUGCUGUAUAGCUC [U31A U78G]",
    "Result": 0.46
  },
  {
    "Residues": "UAACAGGGGGCCACAGCAGAUGCGUUCACGUCGCAGCCCCAGUCAGAUUCUGGUGAAUCUGCGAAUUCUGCUGUAUAUCUC [A21U U41A]",
    "Result": 0.26
  }
]
